Assay: determination of the logP-Values by HPLC according to EEC-Direktive 79/831 Annex V. A8
Format: physicochemical
Conditions: gradient method, acetonitrile/0,1% aqueous phosphoric acid
assay endpoint: log p

Consider the following illustrative entries.
1) COC(=O)/C(=N\O)c1ccccc1O	1.70
2) CNC(=O)/C(=N\OC)c1ccccc1Oc1ncnc(Oc2cccc(Cl)c2C)c1F [XI-1, Z-isomer]	3.43
3) CNC(=O)/C(=N/OC)c1ccccc1Oc1ncnc(Oc2cccc(Cl)c2C)c1F [XI-1, E-isomer]	3.50

What does the data say about its log p? Entry: CNC(=O)/C(=N/OC)c1ccccc1Oc1ncnc(Oc2ccccc2Cl)c1F (single isomer, unassigned) [XI-2, E-isomer]
3.01

Reference for the values: patent US6660872B1
